Experiment: Pharmacokinetic profiles in male C57BL/6 mice
Assay type: in vivo
Conditions: male, C57BL/6, mouse, plasma, po
measured.parameter: half-life (h)
Your answer should be a plain number; it is taken to be in h.

In plain terms, CCc1ccc(Cc2cc([C@@H]3O[C@H](CO)[C@@H](O)[C@H](O)[C@H]3O)cc3c2CCC3)cc1 [HM41322] has a documented half-life of 3.1

---

Experiment: Pharmacokinetic profiles in male C57BL/6 mice
Type: in vivo
Conditions: male, C57BL/6, mouse, plasma, po
measured.parameter: Tmax (min)
Your answer should be a plain number; it is taken to be in min.

In plain terms, CCc1ccc(Cc2cc([C@@H]3O[C@H](CO)[C@@H](O)[C@H](O)[C@H]3O)cc3c2CCC3)cc1 [HM41322] has a documented Tmax of 30

FYI, the data here is from paper PMC6315097.
